# maps each entry to its activity change, negative = inhibition
Target: Guanidinoacetate N-methyltransferase (Homo sapiens) (UniProt Q14353)
Experiment: Confirmatory Screen for Target Class Profiling of Small Molecule Inhibitors of Methyltransferases (AID 1745852); further: on the % scale 0 is the no-effect control and ±100 the full control effect
Conditions: MTase-Glo luminescence, SAH detection, recombinant enzyme; at 57.3 µM (top of the series)
Only the number, expressed in %, is required.

// worked examples, activity change, negative = inhibition included
                              line_notation                           target_of_assay  readout_number
0  N#Cc1c(C2CCNCC2)cc(-c2c(O)cccc2OCC2CC2)nc1N  Guanidinoacetate N-methyltransferase (Homo sapiens) (UniProt Q14353)           0.393
1  CN1CCc2c(c3ccccc3n2Cc2ccc(C(=O)NO)cc2)C1  Guanidinoacetate N-methyltransferase (Homo sapiens) (UniProt Q14353)           -3.04

## Input Please tell me: activity change, negative = inhibition of `Cn1cc(-c2cnn3c(N)c(Br)c([C@H]4CCCNC4)nc23)cn1` , system Guanidinoacetate N-methyltransferase (Homo sapiens) (UniProt Q14353)?
## Output 2.57

## Input Please tell me: activity change, negative = inhibition of `c1ccc2c(Oc3nc(Nc4ccc(N5CCOCC5)cc4)c4ncn(C5CCCCC5)c4n3)cccc2c1` , system Guanidinoacetate N-methyltransferase (Homo sapiens) (UniProt Q14353)?
## Output -1.84

## Input Please tell me: activity change, negative = inhibition of `Cc1cnc(Nc2ccc(N3CCN(C)CC3)cc2)nc1Nc1cccc(S(=O)(=O)NC(C)(C)C)c1` , system Guanidinoacetate N-methyltransferase (Homo sapiens) (UniProt Q14353)?
## Output -1.34

## Input Please tell me: activity change, negative = inhibition of `Cc1cnc(Nc2ccc(CN3CCOCC3)cc2)nc1Nc1cccc(S(=O)(=O)NC(C)(C)C)c1` , system Guanidinoacetate N-methyltransferase (Homo sapiens) (UniProt Q14353)?
## Output 0.454

---

Assay: Quantitative High-Throughput drug screen in 47 multiple myeloma cell lines against the NCATS MIPE library collection: NCIH929_DSMZ cell viability assay (AID 1918978); further: nearly all actives have a fitted effect of over 35% in size
Conditions: NCI-H929 myeloma viability, CellTiter-Glo ATP, 48 h; series mostly up to 45.8 µM
Results filed as inconclusive are left out. Activity calls are given as the source filed them. The call rests on the fitted dose curve; in most records, active means well fitted cell-killing curve with a large enough effect; inconclusive means small, poorly fitted or top-dose-only effect; inactive means no such curve, though single readings can be large or run the other way. Starred links: 1 amine or outer side, 2 acyl side, 3 side chain; linkers in the order of their positions; H or OH if unused. Positions of bridges follow the written chain, without caps; N, C: chain ends. Non-standard residues stand in square brackets, D forms with d. Residues, ends and D or L forms follow the SMILES beside them. Chains are numbered I, II in the order given. ξ: configuration not given here. *: point of attachment. Actinocin(9to1) = Cc1c2oc3c(C)ccc(C(=O)[*:1])c3nc-2c(C(=O)[*:2])c(N)c1=O; Octanoyl(6-Me) = CCC(C)CCCCC(=O)*; ξThr(3R) = C[C@@H](O)C(N)C(=O)O; NMeV = CN[CH](C(=O)O)C(C)C; dDab = NCC[C@@H](N)C(=O)O; Dab = NCC[C@H](N)C(=O)O; Sar = CNCC(=O)O
Reply using exactly one outcome from active, inactive

MOLECULE	CLASS
Cc1cnc(NC(=O)Nc2cc(Br)c(C)cc2OC[C@@H]2CNCCO2)cn1	active
C=Cc1c(C)c2cc3nc(cc4[nH]c(cc5nc(cc1[nH]2)C(C)=C5CCC(=O)O)c(CCC(=O)OC)c4C)[C@@]1(C)C3=CC=C(C(=O)OC)[C@H]1C(=O)OC	active
CC(Cc1ccc(O)c(O)c1)(NN)C(=O)O (configuration not stated)	inactive
CCC(C)CCCCC(=O)N[C@@H](CCN)C(=O)NC(C(=O)N[C@H](CCN)C(=O)N[C@@H]1CCNC(=O)C([C@@H](C)O)NC(=O)[C@@H](CCN)NC(=O)[C@@H](CCN)NC(=O)[C@@H](CC(C)C)NC(=O)[C@H](Cc2ccccc2)NC(=O)[C@H](CCN)NC1=O)[C@@H](C)O (stereo partly drawn) ({Octanoyl(6-Me)}-[Dab][ξThr(3R)][dDab][dDab][Dab]F[dL][dDab][dDab][ξThr(3R)]; lactam 4-C)	inactive
Cc1c2oc3c(C)ccc(C(=O)NC4C(=O)NC(C(C)C)C(=O)N5CCCC5C(=O)N(C)CC(=O)N(C)C(C(C)C)C(=O)OC4C)c3nc-2c(C(=O)NC2C(=O)NC(C(C)C)C(=O)N3CCCC3C(=O)N(C)CC(=O)N(C)C(C(C)C)C(=O)OC2C)c(N)c1=O (configuration not stated) (I: TVP[Sar][NMeV] / II: TVP[Sar][NMeV]; ester I:1-I:C, II:1-II:C; linker I:N-II:N via Actinocin(9to1); configuration not given here)	inactive
Cn1cnc(=N)c2[nH]cnc21	active
C[C@@H](Cc1cc2c(c(C(N)=O)c1)N(CCCO)CC2)NCCOc1ccccc1OCC(F)(F)F	inactive
OCCN1C[C@H](O)[C@@H](O)[C@H](O)[C@@H]1CO	inactive
CC(C)(O)CC[C@@H](O)[C@](C)(O)[C@H]1CC[C@@]2(O)C3=CC(=O)[C@@H]4C[C@@H](O)[C@@H](O)C[C@]4(C)[C@@H]3CC[C@]12C	inactive
C[C@H]1COc2c(N3CCN(C)CC3)c(F)cc3c(=O)c(C(=O)O)cn1c23	inactive

## Input Which outcome was assigned to `CN[C@H]1[C@@H](O)[C@@H]2O[C@@H]3O[C@H](C)CC(=O)[C@]3(O)O[C@@H]2[C@@H](NC)[C@H]1O` in this test?
## Output active

## Input Which outcome was assigned to `C#C[C@]1(O)CC[C@@H]2[C@@H]3CCC4=CC(=O)CC[C@@H]4[C@H]3CC[C@@]21CC` in this test?
## Output inactive

## Input Which outcome was assigned to `C[C@@H](NCc1cc2ccccc2[nH]1)c1cccc2ccccc12` in this test?
## Output inactive

## Input Which outcome was assigned to `CC(=O)O[C@H]1C[C@@H]2CC[C@H]3[C@H]4C[C@H]([N+]5(C)CCCCC5)[C@@H](OC(C)=O)[C@@]4(C)CC[C@@H]3[C@@]2(C)C[C@H]1N1CCCCC1` in this test?
## Output inactive

## Input Which outcome was assigned to C[C@]12CCC(=O)C=C1[C@@H]1CC1[C@H]1[C@H]3[C@@H]4C[C@H]4[C@@]4(CCC(=O)O4)[C@@]3(C)CC[C@H]12 (some centres not stated) in this test?
## Output inactive

## Input Which outcome was assigned to `CCCCCCCCc1ccc(CCC(N)(CO)CO)cc1` in this test?
## Output active

## Input Which outcome was assigned to `CCOC(=O)[C@H](CCc1ccccc1)N[C@@H](C)C(=O)N1[C@@H](C(=O)O)C[C@H]2CCC[C@@H]21` in this test?
## Output active

## Input Which outcome was assigned to `COc1cc(CCc2cc(NC(=O)c3ccc(N4C[C@@H](C)N[C@@H](C)C4)cc3)n[nH]2)cc(OC)c1` in this test?
## Output active

## Input Which outcome was assigned to `COc1ccc2cc([S+]([O-])Cc3ncc(C)c(OC)c3C)nc2c1` in this test?
## Output inactive

## Input Which outcome was assigned to C=C[C@@H]1CN2CCC1C[C@H]2[C@H](O)c1ccnc2ccc(OC)cc12 (some centres not stated) in this test?
## Output inactive

## Input Which outcome was assigned to `O=C(c1ccc(F)cc1)N1CCC[C@H](c2nc(-c3ccc(F)cc3)no2)C1` in this test?
## Output inactive

---

Assay: Quantitative High-Throughput drug screen in 47 multiple myeloma cell lines against the NCATS MIPE library collection: NCIH929_DSMZ cell viability assay (AID 1918978); further: nearly all actives have a fitted effect of over 35% in size
Settings: NCI-H929 myeloma viability, CellTiter-Glo ATP, 48 h; series mostly up to 45.8 µM
Inconclusive results are not listed. The source made the active and inactive calls. The call rests on the fitted dose curve; in most records, active means well fitted cell-killing curve with a large enough effect; inconclusive means small, poorly fitted or top-dose-only effect; inactive means no such curve, though single readings can be large or run the other way.
Reply using exactly one outcome from T for active, F for inactive

Below are worked cases with known answers.
LINE NOTATION	CLASS
Nc1ccn(C[C@@H](CO)OCP(=O)(O)O)c(=O)n1	F
CCn1c(=O)c2c(nc(C=Cc3ccc(OC)c(OC)c3)n2C)n(CC)c1=O	F
CC[C@]12C=CCN3CC[C@@]4(c5cc([C@@]6(C(=O)OC)C[C@H]7C[C@@H](C(C)(F)F)CN(Cc8c6[nH]c6ccccc86)C7)c(OC)cc5N(C)[C@H]4[C@@](O)(C(=O)OC)[C@H]1OC(C)=O)[C@@H]32	T
O=C(NCc1ccccc1)[C@H](Cc1ccccc1)NC(=O)[C@@H]1O[C@@H]1C(=O)NCCc1ccc(O)cc1	F

// switching to the query compound
## Input Which outcome was assigned to `CC(=O)N[C@@H]1[C@H](O[C@@H]2c3ccc(c(Cl)c3)Oc3cc4cc(c3O[C@H]3O[C@H](CO)[C@@H](O)[C@H](O)[C@H]3NC(=O)CCCCCCCC(C)C)Oc3ccc(cc3Cl)C[C@H]3NC(=O)[C@H](N)c5ccc(O)c(c5)Oc5cc(O)cc(c5)[C@H](NC3=O)C(=O)N[C@H]4C(=O)N[C@H]3C(=O)N[C@@H]2C(=O)N[C@@H](C(=O)O)c2cc(O)cc(O[C@H]4O[C@H](CO)[C@@H](O)[C@H](O)[C@H]4O)c2-c2cc3ccc2O)O[C@H](CO)[C@@H](O)[C@@H]1O` in this test?
## Output F
